Below, each entry is listed with its recorded Emax.
measured_target: human GR (Homo sapiens)
test: Trans-Activation Modulation of Glucocorticoid Receptor (GRAMMER), MMTV-LUC reporter, agonist mode
Assay type: cell-based
Parameters: endogenous in cells
assay_setup: A549, A549 cells; maximum activity; read-out: Transactivation A549 Cells GRAMMER Emax
experimental_readout: Emax (%)

[
  {
    "molecule": "COc1ccccc1CCN(C[C@H]1CCC2=Cc3c(cnn3-c3ccccc3)C[C@@]21C)S(=O)(=O)CC(F)(F)F",
    "measured_target": "human GR (Homo sapiens)",
    "reading": 70.7
  },
  {
    "molecule": "COC(=O)c1sccc1S(=O)(=O)N(CC#N)C[C@H]1CCC2=Cc3c(cnn3-c3ccc(F)cc3)C[C@@]21C",
    "measured_target": "human GR (Homo sapiens)",
    "reading": 37
  },
  {
    "molecule": "C[C@]12Cc3cnn(-c4ccc(F)cc4)c3C=C1CC[C@@H]2CN(CCO)S(=O)(=O)Cc1ccccc1",
    "measured_target": "human GR (Homo sapiens)",
    "reading": 14.4
  },
  {
    "molecule": "C[C@]12Cc3cnn(-c4ccc(F)cc4)c3C=C1CC[C@@H]2CN(CC#N)S(=O)(=O)c1cccc(C#N)c1",
    "measured_target": "human GR (Homo sapiens)",
    "reading": 22.7
  },
  {
    "molecule": "C[C@]12Cc3cnn(-c4ccc(F)cc4)c3C=C1CC[C@@H]2CN(CCC(N)C(F)(F)F)S(=O)(=O)CC(F)(F)F (some centres unmarked)",
    "measured_target": "human GR (Homo sapiens)",
    "reading": 78.1
  }
]

* * *

measured_target: human GR (Homo sapiens, UniProt P04150)
test: Trans-Activation Modulation of Glucocorticoid Receptor (GRAMMER), MMTV-LUC reporter, agonist mode
Assay type: cell-based
Set-up: endogenous in cells
assay_setup: A549, A549 cells; maximum activity; read-out: Transactivation A549 Cells GRAMMER Emax
Below, each entry is listed with its recorded Emax.

[
  {
    "compound": "Cc1noc(C)c1S(=O)(=O)N(C)C[C@H]1CCC2=Cc3c(cnn3-c3ccc(F)cc3)C[C@@]21C [Example 176]",
    "Emax / %": 56.9
  },
  {
    "compound": "C[C@]12Cc3cnn(-c4ccc(F)cc4)c3C=C1CC[C@@H]2CN(CC(OS(=O)(=O)CC(F)(F)F)C(F)F)S(=O)(=O)CC(F)(F)F (stereo partly drawn) [Example 134]",
    "Emax / %": 89.2
  },
  {
    "compound": "C[C@@H](CN(C[C@H]1CCC2=Cc3c(cnn3-c3ccc(F)cc3)C[C@@]21C)S(=O)(=O)CC(F)(F)F)OS(=O)(=O)CC(F)(F)F [Example 114]",
    "Emax / %": 80.3
  }
]

* * *

measured_target: UniProt P04150
test: Transrepression Assay (GITAR), TNFα-β-lactamase reporter in U937 cells
Type: cell-based
Design: U937 cells contain an endogenous glucocorticoid receptor (GR); endogenous in cells; host or cells: U937 cells stably transfected with the TNF-alpha promoter/beta-lactamase reporter
assay_setup: GITAR Emax minus GRAMMER Emax

[
  {
    "molecule": "C[C@]12Cc3cnn(-c4ccc(F)cc4)c3C=C1CC[C@@H]2CN(CCc1ccccn1)S(=O)(=O)CCN1C(=O)c2ccccc2C1=O",
    "GITAR > GRAMM % SEP / %": 21.0
  },
  {
    "molecule": "CCCS(=O)(=O)N(CCc1ccccc1F)C[C@H]1CCC2=Cc3c(cnn3-c3ccc(F)cc3)C[C@@]21C",
    "GITAR > GRAMM % SEP / %": 20.0
  },
  {
    "molecule": "C[C@]12Cc3cnn(-c4ccc(F)cc4)c3C=C1CC[C@@H]2CN(CCO)S(=O)(=O)c1ccc(F)cc1F",
    "GITAR > GRAMM % SEP / %": 29.1
  },
  {
    "molecule": "C[C@]12Cc3cnn(-c4ccc(F)cc4)c3C=C1CC[C@@H]2CN(CC(O)C(F)F)S(=O)(=O)CC(F)(F)F (stereo partly drawn)",
    "GITAR > GRAMM % SEP / %": 22.5
  },
  {
    "molecule": "C[C@]12Cc3cnn(-c4ccc(F)cc4)c3C=C1CC[C@@H]2CN(CCO)S(=O)(=O)c1cccc(C#N)c1",
    "GITAR > GRAMM % SEP / %": 22.9
  },
  {
    "molecule": "COCCN(C[C@H]1CCC2=Cc3c(cnn3-c3ccc(F)cc3)C[C@@]21C)S(C)(=O)=O",
    "GITAR > GRAMM % SEP / %": 19.3
  },
  {
    "molecule": "C[C@]12Cc3cnn(-c4ccc(F)cc4)c3C=C1CC[C@@H]2CN(CCc1ccccc1F)S(=O)(=O)c1ccccc1Cl",
    "GITAR > GRAMM % SEP / %": 14.2
  },
  {
    "molecule": "C[C@]12Cc3cnn(-c4ccc(F)cc4)c3C=C1CC[C@@H]2CN(CC#N)S(=O)(=O)c1ccccc1-c1ccccc1",
    "GITAR > GRAMM % SEP / %": 36.0
  },
  {
    "molecule": "C[C@]12Cc3cnn(-c4ccc(F)cc4)c3C=C1CC[C@@H]2CN(CCc1ccccc1F)S(=O)(=O)Cc1cccc(Cl)c1",
    "GITAR > GRAMM % SEP / %": 2.5
  },
  {
    "molecule": "C[C@]12Cc3cnn(-c4ccc(F)cc4)c3C=C1CC[C@@H]2CN(CC(OS(=O)(=O)CC(F)(F)F)C(F)F)S(=O)(=O)CC(F)(F)F (stereo partly drawn)",
    "GITAR > GRAMM % SEP / %": 4.7
  },
  {
    "molecule": "COC(=O)c1ccccc1CCN(C[C@H]1CCC2=Cc3c(cnn3-c3ccc(F)cc3)C[C@@]21C)S(=O)(=O)CC(F)(F)F",
    "GITAR > GRAMM % SEP / %": 5.2
  },
  {
    "molecule": "COc1ccccc1CCN(C[C@H]1CCC2=Cc3c(cnn3-c3ccc(F)cc3)C[C@@]21C)S(=O)(=O)Cc1cccc(C(F)(F)F)c1",
    "GITAR > GRAMM % SEP / %": 9.3
  },
  {
    "molecule": "Cc1noc(C)c1S(=O)(=O)N(C[C@H]1CCC2=Cc3c(cnn3-c3ccc(F)cc3)C[C@@]21C)C[C@@H](C)O",
    "GITAR > GRAMM % SEP / %": 35.0
  },
  {
    "molecule": "COC(=O)c1cc(Cl)ccc1CCN(C[C@H]1CCC2=Cc3c(cnn3-c3ccc(F)cc3)C[C@@]21C)S(=O)(=O)CC(F)(F)F",
    "GITAR > GRAMM % SEP / %": 10.8
  },
  {
    "molecule": "Cn1cc(S(=O)(=O)N(CC(O)C(F)F)C[C@H]2CCC3=Cc4c(cnn4-c4ccc(F)cc4)C[C@@]32C)c(C(F)(F)F)n1 (stereo partly drawn)",
    "GITAR > GRAMM % SEP / %": 15.0
  }
]

* * *

measured_target: human GR (Homo sapiens, UniProt P04150)
Sequence (P04150 1-777): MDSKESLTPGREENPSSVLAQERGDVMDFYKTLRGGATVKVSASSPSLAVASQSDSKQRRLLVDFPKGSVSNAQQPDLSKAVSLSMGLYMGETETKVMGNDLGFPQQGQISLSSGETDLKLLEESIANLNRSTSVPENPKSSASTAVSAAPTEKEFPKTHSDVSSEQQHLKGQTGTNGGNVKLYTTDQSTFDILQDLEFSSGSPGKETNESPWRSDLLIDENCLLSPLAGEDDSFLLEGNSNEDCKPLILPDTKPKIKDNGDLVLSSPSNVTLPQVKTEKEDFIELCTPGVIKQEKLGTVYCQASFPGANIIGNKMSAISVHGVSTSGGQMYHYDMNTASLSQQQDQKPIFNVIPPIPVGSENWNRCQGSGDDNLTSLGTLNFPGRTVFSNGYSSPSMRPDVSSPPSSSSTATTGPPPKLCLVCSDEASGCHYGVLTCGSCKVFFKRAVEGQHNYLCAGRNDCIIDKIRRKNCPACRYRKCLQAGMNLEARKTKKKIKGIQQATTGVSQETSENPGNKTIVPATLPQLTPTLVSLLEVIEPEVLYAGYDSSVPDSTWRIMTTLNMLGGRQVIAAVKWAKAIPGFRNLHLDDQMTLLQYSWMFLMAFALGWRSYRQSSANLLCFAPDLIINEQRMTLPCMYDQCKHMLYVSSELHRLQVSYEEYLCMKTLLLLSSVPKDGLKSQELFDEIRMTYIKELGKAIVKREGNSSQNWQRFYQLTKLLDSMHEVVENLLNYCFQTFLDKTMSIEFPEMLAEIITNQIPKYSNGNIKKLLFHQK
test: Transrepression Assay (GITAR), TNFα-β-lactamase reporter in U937 cells
Type: cell-based
Set-up: U937 cells contain an endogenous glucocorticoid receptor (GR); endogenous in cells; host or cells: U937 cells stably transfected with the TNF-alpha promoter/beta-lactamase reporter
assay_setup: U937 cells; inflection point; read-out: Transrepression U937 Cells GITAR IP
From the text: This assay assesses the ability of test compounds to control transcription from the TNFα-β-lactamase reporter gene in U937 cells, a human myelomonocytic leukemia cell line that naturally expresses the human GR. The assay measures compound dependent-repression of the TNFa promoter linked to a reporter gene. The human U937 cells that had been stablely transfected with the TNF-α promoter driving β-lactamase are used for this assay. U937 cells contain an endogenous glucocorticoid receptor (GR). […]
experimental_readout: EC50 (µM)

[
  {
    "smiles_notation": "C[C@]12Cc3cnn(-c4ccc(F)cc4)c3C=C1CC[C@@H]2CN(CCc1ccccc1F)S(=O)(=O)Cc1cccc(C(F)(F)F)c1",
    "experimental_readout": "EC50",
    "reading": 0.646
  },
  {
    "smiles_notation": "Cc1cc(S(=O)(=O)N(CCO)C[C@H]2CCC3=Cc4c(cnn4-c4ccc(F)cc4)C[C@@]32C)c(C)o1",
    "experimental_readout": "EC50",
    "reading": 0.929
  },
  {
    "smiles_notation": "CCCCS(=O)(=O)N(CCc1ccccc1F)C[C@H]1CCC2=Cc3c(cnn3-c3ccc(F)cc3)C[C@@]21C",
    "experimental_readout": "EC50",
    "reading": 0.0951
  },
  {
    "smiles_notation": "CCCS(=O)(=O)N(CCOC)C[C@H]1CCC2=Cc3c(cnn3-c3ccc(F)cc3)C[C@@]21C",
    "experimental_readout": "EC50",
    "reading": 0.464
  },
  {
    "smiles_notation": "C[C@]12Cc3cnn(-c4ccc(F)cc4)c3C=C1CC[C@@H]2CN(CC#N)S(=O)(=O)c1ccc(Cl)c(C(F)(F)F)c1",
    "experimental_readout": "EC50",
    "reading": 0.638
  },
  {
    "smiles_notation": "C[C@]12Cc3cnn(-c4ccc(F)cc4)c3C=C1CC[C@@H]2CN(CCO)S(=O)(=O)c1ccccc1C(N)=O",
    "experimental_readout": "EC50",
    "reading": 0.533
  }
]
